B1: FAM50A (parent)
chain: HIFPASRWEPYDPEKKWDKYTIR

- Variants of: B1
- MEASUREMENT_PROTOCOL: protein stability index of a GFP-peptide fusion (GPS, HEK-293T) (PSI 1-6); higher = more stable;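 also: lentivirally expressed fusions sorted by FACS into six bins by GFP to DsRed ratio, PSI derived from sequencing read proportions per bin multiplied by bin number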
- ASSAY_SETUP: c terminus: native
Response key: 1 means protein stability index >= 2; 0 means protein stability index < 2.

Is the recorded value of protein stability index equal to or greater than 2 for this variant? HIFPASRWEPYDPFKKWDKYTIR [E14F]
0

Is the recorded value of protein stability index equal to or greater than 2 for this variant? HIFPASRWEPYDPEKPWDKYTIR [K16P]
1

Is the recorded value of protein stability index equal to or greater than 2 for this variant? HIFPASRWEPTDPEKKWDKYTIR [Y11T]
1

Is the recorded value of protein stability index equal to or greater than 2 for this variant? HIFPASRWEPYDPEKKWDKYTIY [R23Y]
1

Is the recorded value of protein stability index equal to or greater than 2 for this variant? HIFPASRWEPYDPEKKWLKYTIR [D18L]
1

Is the recorded value of protein stability index equal to or greater than 2 for this variant? HIFPASRWEPYDPEKKFDKYTIR [W17F]
1

Is the recorded value of protein stability index equal to or greater than 2 for this variant? HIFPASRWEPYDPEKKWDKYMIR [T21M]
1

Is the recorded value of protein stability index equal to or greater than 2 for this variant? HIFPASRWEPYDPEKKWDKYTIM [R23M]
1

Is the recorded value of protein stability index equal to or greater than 2 for this variant? HIFPASRWETYDPEKKWDKYTIR [P10T]
1

Is the recorded value of protein stability index equal to or greater than 2 for this variant? HIFPASRWEPYDQEKKWDKYTIR [P13Q]
0
